The measurements presented in this section are drawn from patent US20090005398A1.

- Test system: HCT116
- assay_summary: Cell-Titer-Glo cell proliferation
- Format: cell-based
- condition_set: Homo sapiens, HCT-116, colon, 72 h
pIC50: −log10 of the molar value.
readout_name: pIC50

Quick note, pIC50 for C[C@@H](Oc1cc(-n2cnc3ccc(CN4CCN(C)CC4)cc32)sc1C(N)=O)c1ccccc1C(F)(F)F [Example 1] landed at > 6.30

* * *

- assay_summary: High throughput solubility assay
- Format: physicochemical
- condition_set: aqueous buffer, pH 7.4, 0.05M phosphate buffer
readout_name: solubility at 24 h

Quick note, solubility at 24 h for C[C@@H](Oc1cc(-n2cnc3ccc(CN4CCN(C)CC4)cc32)sc1C(N)=O)c1ccccc1C(F)(F)F [Example 1] landed at > 100 µM
